System: A549, a human lung cancer cell line
Experiment: WST cell viability assay, A549
Type: cell-based
Conditions: 48 h; A549, human lung cancer; 0.01 to 20 mM, 2 days, WST; read-out: Cell growth inhibition IC50
Measurement kind: IC50 (µM)

{"Compound": "N#C[C@@H]1C[C@@H]2C[C@@H]2N1C(=O)[C@@H](N)C12CC3CC(CC(O)(C3)C1)C2 [Saxagliptin, saxagliptin, reference compound]", "Quantitative readout": 900}
{"Compound": "N#C[C@@H]1CCCCN1C(=O)[C@@H](N)C12CC3CC(CC(O)(C3)C1)C2", "Quantitative readout": 240}
{"Compound": "CC(C)(C)OC[C@@H]1C(=O)NCCN1C(=O)C[C@H](N)Cc1cc(F)c(F)cc1F [Evogliptin, evogliptin, reference compound]", "Quantitative readout": 750}

* * *

Listing of entries alongside the reported IC50.
System: LLC, a mouse lung carcinoma cell line
Assay: WST cell viability assay, LLC
Assay type: cell-based
Conditions: 48 h, mouse lung carcinoma, 0.01 to 20 mM, 2 days, WST, read-out: Cell growth inhibition IC50
Measurement kind: IC50 (µM)

{"Molecule": "CC(C)(C)OC[C@@H]1C(=O)NCCN1C(=O)C[C@H](N)Cc1cc(F)c(F)cc1F [Evogliptin, evogliptin, reference compound]", "System": "LLC, a mouse lung carcinoma cell line", "Quantitative readout": 660}
{"Molecule": "N#C[C@@H]1C[C@@H]2C[C@@H]2N1C(=O)[C@@H](N)C12CC3CC(CC(O)(C3)C1)C2 [Saxagliptin, saxagliptin, reference compound]", "System": "LLC, a mouse lung carcinoma cell line", "Quantitative readout": 950}
{"Molecule": "N#C[C@@H]1CCCCN1C(=O)[C@@H](N)C12CC3CC(CC(O)(C3)C1)C2", "System": "LLC, a mouse lung carcinoma cell line", "Quantitative readout": 330}

The origin of these recorded values is patent US20240158352A1.
